- METHOD_NOTES: plasma pharmacokinetics (LC–MS/MS, noncompartmental analysis)
- Assay type: in vivo, human
- CONDITION_PARAMETERS: human, plasma, po, 135 mg, 135 mg Q2D oral, cycle 1 day 21, plasma, n 3; read-out: tmax, median (min, max)
READOUT_NAME: Tmax
Answer shape: numeric part, then the unit.

# input Let me know recorded Tmax for "C[C@@H](NC(=O)c1ncnc(N)c1Cl)c1ncc(C(=O)Nc2cc(C(F)(F)F)c(Cl)cn2)s1" , thanks.
# output 2 h

###

- METHOD_NOTES: plasma pharmacokinetics (LC–MS/MS, noncompartmental analysis)
- Format: in vivo, human
- CONDITION_PARAMETERS: human, plasma, po, 800 mg, 800 mg QW oral, cycle 1 day 22, plasma, n 3; read-out: Cmax, geometric mean (%CV)
- Description: In addition, for patients on Q2D schedules, predose or trough samples were collected on days 9 and 15 (Q2D dosing) or days 8 and 15 (QW dosing) to evaluate time to steady state. […] Terminal half-life was calculated based on the equation: t1/2 = ln2/kel (kel = elimination rate constant determined by linear regression analysis of selected time points in the apparent terminal phase of the log plasma concentration versus time curve).
READOUT_NAME: Cmax

# input Input C[C@@H](NC(=O)c1ncnc(N)c1Cl)c1ncc(C(=O)Nc2cc(C(F)(F)F)c(Cl)cn2)s1 [tovorafenib] , output reported Cmax.
# output 6460 ng/mL
